Assay: chemical genetic growth profiling, strain panel (AID 1159580);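 also: tested at 20 µM; growth read once vehicle control cultures reached saturation at 30 °C; 1 = growth at the plate median or of vehicle wells; lower values mean less growth of the strain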
Settings: S. cerevisiae deletion strains, growth OD, locus YBR021W, strain FUR4, stronger effect = lower value
The whole screen tested about 5,500 compounds, of which about 2,000 (36%) were called active. Not shown: some 18% with an inconclusive outcome. Some of the results follow.
Here, each record is paired with measured normalized growth data.

Use the examples below as a reference point.
Molecule	Experimental readout	Endpoint result
COc1cc2occc2c2oc(=O)ccc12	normalized growth	0.965 (inactive)
OCC(O)C(O)C(O)C(O)C(O)CO (stereo unspecified)	normalized growth	1.02 (inactive)
C[C@]12CCC3c4ccc(O)cc4CCC3C1C[C@@H](O)[C@@H]2O (stereo partly specified)	normalized growth	1.01 (inactive)
CCCC(C)(COC(N)=O)COC(=O)NC(C)C (stereo unspecified)	normalized growth	0.991 (inactive)
COC(=O)[C@@]1(C)CCC[C@]2(C)c3ccc(O)c(C(C)C)c3CCC12 (stereo partly specified)	normalized growth	0.646 (active)

Field normalized growth (entry COc1c(C(C)C)oc2cc3oc(=O)ccc3cc12 ) reads 0.915 (inactive)

Field normalized growth (entry CC(C)C1COc2cc3oc(=O)ccc3cc2O1 (stereo unspecified) ) reads 0.0979 (active)

Field normalized growth (entry CC12CCC3c4ccc(OCc5ccccc5)cc4CCC3C1C[C@@H](O)[C@@H]2O (stereo partly specified) ) reads 0.995 (inactive)

Field normalized growth (entry C=C[C@H]1CN2CC[C@H]1C[C@@H]2[C@@H](OC(=O)OCC)c1ccnc2ccc(OC)cc12 ) reads 0.992 (inactive)

Field normalized growth (entry NC(N)=NC(=O)c1nc(Cl)c(N)nc1N ) reads 0.86 (inactive)

Field normalized growth (entry CC(=O)OC(C)C[N+](C)(C)C (stereo unspecified) ) reads 1.03 (inactive)

Field normalized growth (entry CC(=O)Oc1ccc2c(c1OC(C)=O)OCC1(O)Cc3c(cc(OC(C)=O)c(OC(C)=O)c3OC(C)=O)C21 (stereo unspecified) ) reads 1.02 (inactive)

Field normalized growth (entry COc1ccc(-c2cc(=O)c3c(O)cc(O[C@H]4O[C@H](CO[C@@H]5O[C@@H](C)[C@H](O)[C@@H](O)[C@H]5O)[C@@H](O)[C@H](O)[C@H]4O)cc3o2)cc1 ) reads 1 (inactive)

Field normalized growth (entry COc1cc(OC)c2c(=O)c(OC)c(-c3ccc(OC)c(OC)c3)oc2c1 ) reads 0.952 (inactive)

Field normalized growth (entry COc1c2ccoc2cc2oc(=O)ccc12 ) reads 1.1 (inactive)

Field normalized growth (entry CC(=O)[C@@]1(O)CCC2C3C[C@H](C)C4=CC(=O)C=CC4(C)[C@@]3(F)[C@@H](O)C[C@@]21C (stereo partly specified) ) reads 0.99 (inactive)

Field normalized growth (entry COc1ccc2c(c1)CCC1C2CC[C@@]2(C)C1CC[C@@H]2O (stereo partly specified) ) reads 1.04 (inactive)

Field normalized growth (entry CC(C)c1c(O)ccc2c1CCC1[C@@](C)(C=O)CCC[C@]21C (stereo partly specified) ) reads 0.476 (active)

Field normalized growth (entry CCCCCCCCCCCCCCCCCC(=O)OC(CC(=O)O)C[N+](C)(C)C (stereo unspecified) ) reads 0.0953 (active)

Field normalized growth (entry COc1ccc(-c2oc3c(CC=C(C)C)c(O[C@@H]4O[C@H](CO)[C@@H](O)[C@H](O)[C@H]4O)cc(O)c3c(=O)c2O[C@@H]2O[C@@H](C)[C@H](O)[C@@H](O)[C@H]2O)cc1 ) reads 1.19 [resistant] (active)

Field normalized growth (entry COc1ccc2c(c1)CCC1C2CCC2(C)C1C[C@@H](O)C2O (stereo partly specified) ) reads 1.08 (inactive)
